This collection of values is drawn from patent US11286233B2.

- studyTarget: Aβ1-42:Zn (Homo sapiens, UniProt P05067)
- Construct: Human peptides Aβ1-42 and Amylin 8-37 were purchased
- Sequence (P05067 672-713): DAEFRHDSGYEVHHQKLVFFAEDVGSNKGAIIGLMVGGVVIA
- assayProtocol: Fluorescence-based (bis-ANS) assay of Aβ1-42:Zn disaggregation
- condition: Aβ1-42 15 μM, bis-ANS 15 μM, Zn 15 μM; Tris-HCl pH7.4, 26° C.; test compounds 0.227-60 μM added after plateau, read over 20 minutes; concentration reducing fluorescence by 50 percent

[
  {
    "compound": "N#C/C(=C/c1ccc(/C=C/c2ccc(N(c3ccccc3)c3ccccc3)cc2)cc1OCCCCCCCC(=O)O)C(=O)O",
    "EC50 (µM)": 1.61
  },
  {
    "compound": "CN(C)Cc1ccc2c(Cl)cc(Cl)c(O)c2n1 [AC-068(PBT2), reference compound]",
    "EC50 (µM)": 2.21
  },
  {
    "compound": "N#CC(C#N)=Cc1cc2c3c(c1)CCCN3CCC2 [DCVJ, 9-(Dicyanovinyl)julolidine, reference compound]",
    "EC50 (µM)": 0.533
  },
  {
    "compound": "Oc1c(I)cc(Cl)c2cccnc12 [CQ, Clioquinol, reference compound]",
    "EC50 (µM)": 2.69
  }
]

###

- studyTarget: Amylin 8-37 (Homo sapiens)
- Construct: Amylin 8-37 peptide was solubilized in DMSO
- Sequence (P10997 41-70): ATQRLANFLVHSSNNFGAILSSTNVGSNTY
- assayProtocol: Fluorescence-based (bis-ANS) assay of Amylin disaggregation
- condition: Amylin 8-37 15 μM, bis-ANS 15 μM; Tris-HCl pH7.4, 26° C.; aggregation 24 hours, test compounds 0.227-60 μM, read over 24 hour period; concentration reducing fluorescence by 50 percent
pEC50: −log10 of the molar value.
Assign class by pEC50: not lower than 6 means Satisfied; lower than 6 means Not satisfied.

[
  {
    "molecule": "N#C/C(=C/c1ccc(-c2ccc(N(c3ccccc3)c3ccccc3)cc2)o1)C(=O)O [PC-081]",
    "groupLabel": "Satisfied"
  },
  {
    "molecule": "CC(C)(C)c1ccc(N(c2ccc(/C=C/c3ccc4cc(C#N)c(=O)[nH]c4c3)cc2)c2ccc(C(C)(C)C)cc2)cc1 [PC-174]",
    "groupLabel": "Not satisfied"
  },
  {
    "molecule": "Oc1c(I)cc(Cl)c2cccnc12 [CQ, Clioquinol, reference compound]",
    "groupLabel": "Not satisfied"
  },
  {
    "molecule": "N#CC(=Cc1ccc(/C=C/c2ccc(N(c3ccccc3)c3ccccc3)cc2)cc1)C(=O)O (stereo in doubt) [PC-064]",
    "groupLabel": "Satisfied"
  }
]

###

Recorded log10 EC50 values for a group of molecules are listed next.
- studyTarget: Aβ1-42:Zn (Homo sapiens, UniProt P05067)
- Construct: Human peptides Aβ1-42 and Amylin 8-37 were purchased
- assayProtocol: Fluorescence-based (bis-ANS) assay of Aβ1-42:Zn disaggregation
- condition: Aβ1-42 15 μM, bis-ANS 15 μM, Zn 15 μM; Tris-HCl pH7.4, 26° C.; test compounds 0.227-60 μM added after plateau, read over 20 minutes; concentration reducing fluorescence by 50 percent
- Method: Human peptides Aβ1-42 and Amylin 8-37 were purchased from China Peptide and stored at −80° C. […] The device was configured to maintain 26° C., measure an excitation of 390 nm, emission of 490 nm and cutoff 475 nm with the PMT+set at Medium, 6 flashes/read at 40 second intervals with shaking 5 seconds before the first read and 3 seconds between reads. […] Test compounds (0.227-60 μM in DMSO) were then added and the dose response was measured over a 20-minute period. […]
propertyName: log10 EC50 (log10 of the value in nM)

[
  {
    "molecule": "N#C/C(=C/c1ccc(/C=C/c2ccc(N(c3ccccc3)c3ccccc3)cc2)cc1OCCCCCCCCCC(=O)O)C(=O)O",
    "studyTarget": "Aβ1-42:Zn (Homo sapiens, UniProt P05067)",
    "propertyName": "log10 EC50",
    "recordedMeasurement": 3.45
  },
  {
    "molecule": "N#C/C(=C/c1ccc(/C=C/c2ccc(N(c3ccccc3)c3ccccc3)cc2)cc1OCC(=O)O)C(=O)O",
    "studyTarget": "Aβ1-42:Zn (Homo sapiens, UniProt P05067)",
    "propertyName": "log10 EC50",
    "recordedMeasurement": 2.81
  },
  {
    "molecule": "COc1cc(/C=C/c2ccc(N(c3ccc(C(C)(C)C)cc3)c3ccc(C(C)(C)C)cc3)cc2)c(OC)cc1C=C(C#N)C(=O)O (stereo in doubt)",
    "studyTarget": "Aβ1-42:Zn (Homo sapiens, UniProt P05067)",
    "propertyName": "log10 EC50",
    "recordedMeasurement": 4.49
  },
  {
    "molecule": "N#C/C(=C/c1ccc(-c2ccc(N(c3ccccc3)c3ccccc3)cc2)o1)C(=O)O",
    "studyTarget": "Aβ1-42:Zn (Homo sapiens, UniProt P05067)",
    "propertyName": "log10 EC50",
    "recordedMeasurement": 2.53
  },
  {
    "molecule": "N#CC(=Cc1ccc(/C=C/c2ccc(N(c3ccccc3)c3ccccc3)cc2)cc1)C(=O)O (stereo in doubt)",
    "studyTarget": "Aβ1-42:Zn (Homo sapiens, UniProt P05067)",
    "propertyName": "log10 EC50",
    "recordedMeasurement": 2.87
  },
  {
    "molecule": "CC(C)(C)c1ccc(N(c2ccc(/C=C/c3ccc4cc(C#N)c(=O)[nH]c4c3)cc2)c2ccc(C(C)(C)C)cc2)cc1",
    "studyTarget": "Aβ1-42:Zn (Homo sapiens, UniProt P05067)",
    "propertyName": "log10 EC50",
    "recordedMeasurement": 4.70
  },
  {
    "molecule": "O=C(O)CN(CCN(CC(=O)O)CC(=O)O)CC(=O)O [EDTA, Ethylenediaminetetraacetic acid, reference compound]",
    "studyTarget": "Aβ1-42:Zn (Homo sapiens, UniProt P05067)",
    "propertyName": "log10 EC50",
    "recordedMeasurement": 4.66
  }
]
